Tested on: Haemophilus influenzae Holt
Assay: standard agar-dilution assay (MIC)
Assay type: cell-based
Conditions: ampicillin-sensitive strain, unit assumed
READOUT TYPE: MIC (µg/mL)
Give bare numbers, in µg/mL.

COMPOUND: CCC1OC(=O)CC(O)C(C)C(OC2OC(C)C(OC3CC(C)(O)C(O)C(C)O3)C(N(C)C)C2OC(C)=O)C(CC=O)CC(C)C(=O)C=CC(C)=CC1COC(C)=O (stereo not drawn)
MIC, µg/mL: 16

COMPOUND: CCC1OC(=O)CC(O)C(C)C(OC2OC(C)C(OC3CC(C)(O)C(O)C(C)O3)C(N(C)C)C2OC(C)=O)C(CC=O)CC(C)C(=O)C=CC(C)=CC1COC(=O)Cc1ccc(Cl)cc1 (stereo not drawn)
MIC, µg/mL: 4

Task item: Sample CCC1OC(=O)CC(O)C(C)C(OC2OC(C)C(OC3CC(C)(O)C(O)C(C)O3)C(N(C)C)C2OC(C)=O)C(CC=O)CC(C)C(=O)C=CC(C)=CC1COC(=O)n1ccnc1 (stereo not drawn) — what was its MIC?
Reply: 16

* * *

Test system: Haemophilus influenzae R252
Assay: standard agar-dilution assay (MIC)
Type: cell-based
Settings: Haemophilus influenzae R252, ampicillin-resistant strain, unit assumed
Procedure: The MIC's in Table II were determined by standard agar-dilution assays. The MIC's in Table III were obtained using a conventional broth-dilution microtiter test.
READOUT TYPE: MIC (µg/mL)
Numbers only, in µg/mL.

The examples below pair each entry with its known result.
COMPOUND: CCC1OC(=O)CC(O)C(C)C(OC2OC(C)C(OC3CC(C)(O)C(O)C(C)O3)C(N(C)C)C2OC(C)=O)C(CC=O)CC(C)C(=O)C=CC(C)=CC1COC(=O)CCc1ccccc1 (stereo not shown) [Compound 13]
READOUT TYPE: MIC
RECORDED MEASUREMENT: 2

COMPOUND: CCC1OC(=O)CC(O)C(C)C(OC2OC(C)C(OC3CC(C)(O)C(O)C(C)O3)C(N(C)C)C2O)C(CC=O)CC(C)C(=O)C=CC(C)=CC1COC(=O)NCCCCCCCCN (stereo not shown) [Compound 27]
READOUT TYPE: MIC
RECORDED MEASUREMENT: 32

COMPOUND: CCC1OC(=O)CC(O)C(C)C(OC2OC(C)C(OC3CC(C)(O)C(O)C(C)O3)C(N(C)C)C2OC(C)=O)C(CC=O)CC(C)C(=O)C=CC(C)=CC1COC(=O)Cc1ccc(Cl)cc1 (stereo not shown) [Compound 14]
READOUT TYPE: MIC
RECORDED MEASUREMENT: 4

COMPOUND: CCC1OC(=O)CC(O)C(C)C(OC2OC(C)C(OC3CC(C)(O)C(O)C(C)O3)C(N(C)C)C2O)C(CC=O)CC(C)C(=O)C=CC(C)=CC1COC(=O)NCCN1CCOCC1 (stereo not shown) [Compound 29]
READOUT TYPE: MIC
RECORDED MEASUREMENT: 16

COMPOUND: CCC(=O)OC1C(OC2C(CC=O)CC(C)C(=O)C=CC(C)=CC(COC(C)=O)C(CC)OC(=O)CC(O)C2C)OC(C)C(OC2CC(C)(O)C(O)C(C)O2)C1N(C)C (stereo not shown) [Compound 6, 23-O-Acetyl-2'-O-propionyl-DMT]
READOUT TYPE: MIC
RECORDED MEASUREMENT: 16

COMPOUND: CCC1OC(=O)CC(O)C(C)C(OC2OC(C)C(OC3CC(C)(O)C(O)C(C)O3)C(N(C)C)C2O)C(CC=O)CC(C)C(=O)C=CC(C)=CC1COC(=O)n1ccnc1 (stereo not shown) [Compound 22]
READOUT TYPE: MIC
RECORDED MEASUREMENT: 8

COMPOUND: CCC1OC(=O)CC(O)C(C)C(OC2OC(C)C(OC3CC(C)(O)C(O)C(C)O3)C(N(C)C)C2OC(C)=O)C(CC=O)CC(C)C(=O)C=CC(C)=CC1COC(C)=O (stereo not shown) [Compound 1, 2',23-Di-O-Acetyl-DMT]
READOUT TYPE: MIC
RECORDED MEASUREMENT: 16

COMPOUND: CCC1OC(=O)CC(O)C(C)C(OC2OC(C)C(OC3CC(C)(O)C(O)C(C)O3)C(N(C)C)C2O)C(CC=O)CC(C)C(=O)C=CC(C)=CC1COC(=O)Cc1ccccc1 (stereo not shown) [Compound 10, 23-O-Phenylacetyl-DMT]
READOUT TYPE: MIC
RECORDED MEASUREMENT: 2

COMPOUND: CCC1OC(=O)CC(O)C(C)C(OC2OC(C)C(OC3CC(C)(O)C(O)C(C)O3)C(N(C)C)C2OC(C)=O)C(CC=O)CC(C)C(=O)C=CC(C)=CC1COC(=O)n1ccnc1 (stereo not shown) [Compound 21]
READOUT TYPE: MIC
RECORDED MEASUREMENT: 8

COMPOUND: CCC1OC(=O)CC(O)C(C)C(OC2OC(C)C(OC3CC(C)(O)C(O)C(C)O3)C(N(C)C)C2O)C(CC=O)CC(C)C(=O)C=CC(C)=CC1COC(=O)N1CCC(O)CC1 (stereo not shown) [Compound 28]
READOUT TYPE: MIC
RECORDED MEASUREMENT: 16

// batch mode: one MIC value per listed entry
1. CCC(=O)OCC1C=C(C)C=CC(=O)C(C)CC(CC=O)C(OC2OC(C)C(OC3CC(C)(O)C(O)C(C)O3)C(N(C)C)C2O)C(C)C(O)CC(=O)OC1CC (stereo not shown) [Compound 4, 23-O-Propionyl-DMT]
2. CCC1OC(=O)CC(O)C(C)C(OC2OC(C)C(OC3CC(C)(O)C(O)C(C)O3)C(N(C)C)C2OC(C)=O)C(CC=O)CC(C)C(=O)C=CC(C)=CC1COC(=O)C(C)(C)C (stereo not shown) [Compound 8]

Reply:
[32, 4]

List the reported MIC of each compound below.
1. CCC1OC(=O)CC(O)C(C)C(OC2OC(C)C(OC3CC(C)(O)C(O)C(C)O3)C(N(C)C)C2OC(C)=O)C(CC=O)CC(C)C(=O)C=CC(C)=CC1COC(=O)Cc1ccccc1 (stereo not shown) [Compound 9, 2'-O-Acetyl-23-O-phenylacetyl-DMT]
2. CCC1OC(=O)CC(O)C(C)C(OC2OC(C)C(OC3CC(C)(O)C(O)C(C)O3)C(N(C)C)C2OC(C)=O)C(CC=O)CC(C)C(=O)C=CC(C)=CC1COC(=O)C(Cl)(Cl)Cl (stereo not shown) [Compound 16]
3. CCC(=O)OCC1C=C(C)C=CC(=O)C(C)CC(CC=O)C(OC2OC(C)C(OC3CC(C)(O)C(O)C(C)O3)C(N(C)C)C2OC(=O)CC)C(C)C(O)CC(=O)OC1CC (stereo not shown) [Compound 3, 2',23-Di-O-Propionyl-DMT]
4. CCC1OC(=O)CC(O)C(C)C(OC2OC(C)C(OC3CC(C)(O)C(O)C(C)O3)C(N(C)C)C2OC(C)=O)C(CC=O)CC(C)C(=O)C=CC(C)=CC1COC(=O)Cc1cc(OC)ccc1OC (stereo not shown) [Compound 20]

Reply:
[4, 2, 16, 16]
